Let's look at some binders and their measured EC50 [µM], FXa generation assay.
target-entity: human Factor IXa (human, UniProt P00740 47-191; P00740 227-461)
assay-overview: cell-based or functional assay
Square brackets hold non-standard residues; d marks the D form. Primed or numbered codes have the meaning given here. Side chains are listed from the residue outwards. Ends that are not written are not given here. * marks the point of attachment. Biotin = O=C1N[C@H]2[C@H](CS[C@H]2CCCCC(=O)*)N1; PEG2(3) = PEG2 spacer carrying biotin on Lys; Palmitoyl = CCCCCCCCCCCCCCCC(=O)*; NMeF = CN[C@@H](Cc1ccccc1)C(=O)O; NMeA = CN[C@@H](C)C(=O)O; Orn = NCCC[C@H](N)C(=O)O; PEG16′ = PEG-16 spacer

Use these answered entries as a reference point.
>  <binder>
QRAGRVARLHRRAPNKLTCLASYCWLFWTGIA [QRAGRVARLH RRAPN KLTCLASYCWLFWTGIA]

>  <EC50 [µM], FXa generation assay>
> 1 µM

$$$$
>  <binder>
KLT[Orn]LASYEWLF-NH2 (N-terminus assumed; SMILES CC(C)C[C@H](NC(=O)[C@H](CCCN)NC(=O)[C@@H](NC(=O)[C@H](CC(C)C)NC(=O)[C@@H](N)CCCCN)[C@@H](C)O)C(=O)N[C@@H](C)C(=O)N[C@@H](CO)C(=O)N[C@@H](Cc1ccc(O)cc1)C(=O)N[C@@H](CCC(=O)O)C(=O)N[C@@H](Cc1c[nH]c2ccccc12)C(=O)N[C@@H](CC(C)C)C(=O)N[C@@H](Cc1ccccc1)C(N)=O) [KLT-Orn-LASY-Glu-WLF-CONH2]

>  <EC50 [µM], FXa generation assay>
< 0.5 µM

$$$$
>  <binder>
[dR]RAPGKLTCLASYCWLFWTGIA[PEG16′]K([PEG2(3)-Biotin])[PEG16′]K(Palmitoyl) (cysteine pairing not given here) [rRAPGKLTCLASYCWLFWTGIA-PEG16-Lys(PEG2-Biotin)-PEG16-Lys(palmitoyl)]

>  <EC50 [µM], FXa generation assay>
> 1 µM

$$$$
>  <binder>
DSRSAKRKCLASYCWLFGIGQA

>  <EC50 [µM], FXa generation assay>
> 20 µM

$$$$
>  <binder>
KLTCLASYCWL[dF] (cysteine pairing not given here) [KLTCLASYCWLf]

>  <EC50 [µM], FXa generation assay>
> 1 µM

$$$$

IN: What does the record list as EC50 [µM], FXa generation assay for RAAPGKLQCLASYCWLFWTGIA ?
OUT: < 0.5 µM

IN: What does the record list as EC50 [µM], FXa generation assay for RRAPGKLTCLASYCWL[NMeF]WTGIA (not fully specified (bridges); printed as RRAPGKLTCLASYCWL-MePhe-WTGIA; cysteine pairing not given here) [RRAPGKLTCLASYCWL-MePhe-WTGIA] ?
OUT: > 1 µM

IN: What does the record list as EC50 [µM], FXa generation assay for RRAPGKLTCLASYCWLFWTGIA (not fully specified; C-terminal PEG4) [RRAPGKLTCLASYCWLFWTGIA-PEG4] ?
OUT: < 0.5 µM

IN: What does the record list as EC50 [µM], FXa generation assay for RRAPGKLTCLASYCWLFWTGI[NMeA] (not fully specified (C-terminus, bridges); printed as RRAPGKLTCLASYCWLFWTGI-MeAla; cysteine pairing not given here) [RRAPGKLTCLASYCWLFWTGI-MeAla] ?
OUT: > 1 µM
